IC50 values for Cytochrome P450 2D6 (Homo sapiens, UniProt P10635), compiled from several publications.

Consider the compound O=C1NN=C(c2ccc(OC3CCN(C4CCC4)CC3)cc2)[C@@H]2C[C@H]12 and give its measured IC50.
> 30 µM

Let us now turn to COc1cc(Nc2nc3c(s2)CCCC3c2ccccc2)ccc1-c1sc(C)nc1C (stereo not given)
< 0.5 µM

Request: COc1ccc(OC[C@@]2(c3ccccc3)C[C@H]2C(=O)Nc2ccc(C#N)cn2)cc1OC
> 10 µM

Cool, now Cc1ccc(-c2ccc(Cn3c(CC(C)(C)C(=O)O)c(SC(C)(C)C)c4cc(OCc5ccccn5)ccc43)cc2)cn1
> 10 µM

Ok, now O=c1[nH]c([C@@H]2CCCN2)nc2c1oc1ccc(Cl)cc12
> 50 µM

---

What follows is literature data on pIC50 for Cytochrome P450 2D6 (Homo sapiens).
pIC50: −log10 of the molar value.

Some molecules with recorded pIC50:
[
  {
    "query_smiles": "CCN(CC)CCN(Cc1ccc(-c2ccc(Cl)cc2)cc1)C(=O)Cn1c(SCc2ccc(F)cc2)nc(=O)c2c1CCCC2",
    "pIC50": 5.22
  },
  {
    "query_smiles": "CC(C)(C)S(=O)(=O)c1ccc2nc(-c3ccc(=O)n(-c4ccccc4)c3)[nH]c2c1",
    "pIC50": "< 4.70"
  }
]

Using the record for Nc1nc2ccc(C(=O)NCCc3cccs3)cc2s1 , report its pIC50.
> 5.00

---

# literature pull: Cytochrome P450 2D6 (Homo sapiens, UniProt P10635) IC50
# Sequence (P10635 whole entry): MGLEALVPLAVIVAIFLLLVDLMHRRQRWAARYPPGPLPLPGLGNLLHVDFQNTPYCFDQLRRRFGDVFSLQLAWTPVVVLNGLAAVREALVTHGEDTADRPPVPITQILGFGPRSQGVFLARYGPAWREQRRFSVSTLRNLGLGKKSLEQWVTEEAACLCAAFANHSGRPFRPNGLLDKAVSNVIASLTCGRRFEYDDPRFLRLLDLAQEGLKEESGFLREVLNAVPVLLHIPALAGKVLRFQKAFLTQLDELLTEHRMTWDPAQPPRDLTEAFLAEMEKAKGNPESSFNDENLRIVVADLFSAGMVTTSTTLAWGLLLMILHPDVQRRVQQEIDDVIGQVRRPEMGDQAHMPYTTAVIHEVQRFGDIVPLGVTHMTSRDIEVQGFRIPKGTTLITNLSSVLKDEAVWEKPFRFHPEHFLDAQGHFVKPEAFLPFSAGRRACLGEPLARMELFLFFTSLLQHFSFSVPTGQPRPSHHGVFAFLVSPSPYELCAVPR

Example compounds with recorded IC50:
[
  {
    "compound": "O=c1cc(-c2ccccc2)oc2cc(O)cc(O)c12",
    "IC50": "> 50 µM"
  },
  {
    "compound": "CCCS(=O)(=O)c1ccc2nc(-c3cn(-c4ccccc4)ccc3=O)[nH]c2c1",
    "IC50": "> 20 µM"
  },
  {
    "compound": "Nc1ncccc1-c1nc2cccnc2n1-c1ccc(CC(=O)Nc2ccccc2)cc1",
    "IC50": "> 10 µM"
  },
  {
    "compound": "N=C(N)c1ccc(Oc2cc(NC(=O)[C@H]3CC[C@H](N)CC3)cc(Oc3ccc(C(=N)N)cc3)c2)cc1",
    "IC50": "> 30 µM"
  },
  {
    "compound": "O=C1CCCN1Cc1c(F)cc(-n2nc(C(F)(F)F)c3c2CCOC3)cc1F",
    "IC50": "> 10 µM"
  },
  {
    "compound": "COc1cc(Oc2ccccc2)ccc1-c1nc([C@H]2C[C@@](C)(O)C2)n2ccnc(N)c12",
    "IC50": "> 20 µM"
  }
]

Using the record for CN1CC=CCC(c2cc3ccccc3o2)C1 (configuration not stated) , report its IC50.
6.7 µM

Please answer likewise for Cc1nnc(C)n1-c1ccc(O[C@H]2c3cc(Cl)cc(Cl)c3C[C@@H]2N2CC[C@@H](O)C2)c(F)c1
> 10 µM

Another compound to check: CCCCN1C(=O)[C@@H]([C@H](O)C(C)C)NC(=O)C12CCN(Cc1ccc(Oc3ccccc3)cc1)CC2
> 30 µM

---

pIC50: −log10 of the molar value.
Here we gather pIC50 data for Cytochrome P450 2D6 (Homo sapiens, UniProt P10635) reported by several publications.

# example entries with known answers
[
  {
    "compound": "Br.CN(C)Cc1cc2c([nH]c(=O)c3cccc(O)c32)s1",
    "measured_target": "Cytochrome P450 2D6 (Homo sapiens, UniProt P10635)",
    "obs_value": 3.77
  },
  {
    "compound": "COC(=O)C1CCN(C(=O)c2ccc(CNC(=O)c3ccc4nc(N)sc4c3)cc2)CC1",
    "measured_target": "Cytochrome P450 2D6 (Homo sapiens, UniProt P10635)",
    "obs_value": "< 4.60"
  }
]

Endpoint output: pIC50 of CCN(C)C1=N[C@@H]2[C@@H](O)[C@H](O)[C@@H](CO)O[C@@H]2S1 . Value?
< 4.30

For CN(C)CC1CCC(CNc2nc(NCc3ccccc3Cl)ncc2[N+](=O)[O-])CC1 (centres undefined) then?
5.77

Repeat with CCNc1cc(C(=O)N[C@@H](Cc2ccccc2)[C@H](O)CNCc2cccc(C(F)(F)F)c2)c(F)c(N2CCCC2=O)c1
4.96

Continue with Cc1cccc(-c2[nH]c(NCc3ccc(Cl)c(Cl)c3)nc2-c2ccc3[nH]ncc3c2)n1
< 5.00

Now try COCCCn1c(NC(=O)c2ccc(C#N)cc2)nc2cc(CN(C)C3CCCCC3)ccc21 .
< 4.85

Cc1cccc(-c2[nH]c(NCc3cccc(F)c3)nc2-c2ccc3c(cnn3C(F)F)c2)n1 ?
< 5.00

How about Cc1c(C(=O)Nc2ccn(C)n2)ncn1Cc1cccc(C(F)(F)F)c1 ?
< 4.52

Next entry: CCO[C@@H]1Cc2cc(C(F)(F)F)ccc2[C@H]1N1CCN(C2(C)CCN(C(=O)c3c(C)ncnc3C)CC2)C[C@@H]1C
< 4.60

Now try C[C@H](CCN1CCC[C@@H](Cc2ccc(F)cc2)C1)NC(=O)Nc1cc(-n2cccn2)cc(-n2cccn2)c1 .
5.52

Let us now turn to CO[C@H]1CC[C@@H](n2nc(C)c(C(=O)N[C@@H](C)C(C)(C)C)c2NS(=O)(=O)c2ccc(C)cc2)CC1
< 5.00

Would you mind doing C[C@H]1CN(Cc2cccc(-c3cc(CNC(=O)c4cccc(CC5CCNCC5)c4)ccc3F)c2)CCN1 as well?
< 5.00

Next record, please: Cc1nccn1-c1ccc(OCC(=O)Nc2ccc(-c3ccccc3)cc2)cc1
5.72

CCN(C)CCC1=C(Cc2cnccn2)c2ccccc2C1 ?
5.36

Try this compound next: NC(=O)C[S+]([O-])Cc1ccccc1-c1ccc(Cl)cc1 (single isomer, unassigned; (-))
3.75

Input C[C@H](COc1ccc(-c2ccc(=O)n(C)n2)cc1)CN1CCC[C@H]1C
< 4.52

Repeat for the following compound: Fc1ccc(Oc2nccc3[nH]ccc23)c(F)c1
< 4.70

Also, CC(=O)N[C@@H]1C[C@H](NC(C)(C)C)CC[C@@H]1N1CC[C@H](Nc2ncnc3ccc(C(F)(F)F)cc23)C1=O please.
< 4.40

---

pIC50: −log10 of the molar value.
Across several studies, compounds have been characterized by their pIC50 on Cytochrome P450 2D6 (Homo sapiens, UniProt P10635); a selection follows.

[
  {
    "query_smiles": "CCCS(=O)(=O)N1CCN(C2(CNC(=O)c3c(F)cccc3F)CCC(F)(F)CC2)CC1",
    "measured_target": "Cytochrome P450 2D6 (Homo sapiens, UniProt P10635)",
    "pIC50": "< 5.00"
  },
  {
    "query_smiles": "NC(=O)c1sc(-c2ccccc2)cc1N",
    "measured_target": "Cytochrome P450 2D6 (Homo sapiens, UniProt P10635)",
    "pIC50": "< 4.52"
  },
  {
    "query_smiles": "Fc1cc(Cl)ccc1-c1ccc(Cn2nnc3ccccc32)cn1",
    "measured_target": "Cytochrome P450 2D6 (Homo sapiens, UniProt P10635)",
    "pIC50": "< 5.00"
  }
]

Okay, next one:
Look up pIC50 for this compound: COc1cc2nc(C)[nH]c2cc1C(=O)c1ccc(Nc2ccc(F)cc2F)cc1
< 5.70

---

Compiled from multiple publications: IC50 readings for Cytochrome P450 2D6 (Homo sapiens, UniProt P10635).

Take a look at these entries with their results.
[
  {
    "molecule": "Cc1[nH]nc(C(=O)O)c1Cc1cc2ccccc2s1",
    "measured_target": "Cytochrome P450 2D6 (Homo sapiens, UniProt P10635)",
    "IC50": "> 10 µM"
  },
  {
    "molecule": "COCCOc1ccn2c(-c3ccc4cccc(OC5CCNCC5)c4n3)cnc2c1",
    "measured_target": "Cytochrome P450 2D6 (Homo sapiens, UniProt P10635)",
    "IC50": "> 10 µM"
  }
]

Which measured IC50 value corresponds to Nc1cc(CN2CCC(C(=O)N3CCC(n4c(=O)n(-c5cnccn5)c5cc(F)ccc54)CC3)CC2)ccn1 ?
> 30 µM

What about this molecule? COc1cc(OC)c(Cl)c(NC(=O)N(C)c2cc(Nc3cccc(CN4CCN(C)CC4)c3)ncn2)c1Cl
> 10 µM

Note, next up: CC1(c2ccccc2)CCCN(C(=O)Nc2ccc(Cl)cc2)C1 (stereo not drawn)
> 10 µM

Proceed to CS(=O)(=O)c1ccc2c(c1)CCC1(CCCN(C(=O)N[C@H]3C[C@@H]3c3ccccc3)CC1)O2 (relative stereo)
> 10 µM

Then this molecule: O=C(c1ccccc1)N1CCc2oc(-c3ccc(F)cn3)nc2C1
> 50 µM

Try this molecule next: CNC(=O)N1CCc2c(c(N3CCCc4cc(-c5cnn(C)c5)c(C(F)F)cc43)nn2C2CCOCC2)C1
> 10 µM
